Examples of molecules with documented normalized growth follow.
ASSAY_REMARKS: chemical genetic growth profiling, strain panel (AID 1159580);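 note: tested at 20 µM; growth read once vehicle control cultures reached saturation at 30 °C; 1 = growth at the plate median or of vehicle wells; lower values mean less growth of the strain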
SETTINGS: S. cerevisiae deletion strains, growth OD, locus YPL241C, strain CIN2, active compounds read low
Among all 5,500 compounds or so, about 2,000 (36%) were called active. Not shown: some 18% with an inconclusive outcome. Some of the results follow. Where a SMILES comes first, the peptide text is derived from it. Bridges are numbered along the chain shown (N, C = ends). [ ]: non-standard residue; d: D form. The star is where a group is joined. Octanoyl(6-Me) = CCC(C)CCCCC(=O)*; Dab = NCC[CH](N)C(=O)O
MEASUREMENT_NAME: normalized growth

COc1c2ccoc2cc2oc(C)cc(=O)c12
0.976
Cn1c(=O)c(-c2ccccc2)c(O)c2ccccc21
0.816
COC(=O)c1cc([N+](=O)[O-])ccc1N1CCOCC1
1.06
COc1c2occc2c(OC)c2c(=O)cc(C)oc12
1.01
c1cc(C2CCCCC2)ccc1C1CCCCC1
1
O=c1[nH]cnc2c1ncn2C1O[C@H](CO)[C@@H](O)[C@H]1O (some centres not stated)
1
N[C@@H](CCl)C(=O)O
1
COc1cccc(C(=O)N/N=C(/C)c2ccccc2O)c1
0.791
COc1cc(/C=N\NC(=S)NC2CC3CCC2C3)cc(OC)c1OC (configuration not stated)
0.898
CC(=O)O[C@H]1CC[C@]2(C)C3CC(=O)[C@]4(C)C(C(C)=O)=CCC4C3CC[C@H]2C1 (some centres not stated)
0.988
CC(=O)OC1CCC2(C)C3CC(=O)C4(C)C(CC5OC6(CCC(C)CO6)[C@@H](C)C54)C3CC[C@H]2C1 (some centres not stated)
0.994
CC1(C)C(=O)[C@@H]2O[C@@H]2[C@@]2(C)C1CC(=O)[C@]1(C)C2CC[C@@]2(C)[C@H](c3ccoc3)OC(=O)[C@H]3O[C@]321 (some centres not stated)
0.977
COc1cccc(C(=O)NCCN2CCN(c3ccc(Cl)cc3)CC2)c1
1.01
COc1cc([N+](=O)[O-])ccc1N1CCCC1
0.858
COc1cc(C=Nc2ccc(F)cc2)cc(OC)c1OC
0.997
COC1(C)CCC2OC2(C)CCC2C1CC2(C)C (configuration not stated)
0.993
Cc1ccc(=O)n(-c2ccccc2)c1
1
NC(=S)c1ccc(Oc2ccc(Cl)cc2)nc1
0.0912
CN[C@@H]1[C@@H](O[C@H]2O[C@H](CO)[C@@H](N)[C@H](O)[C@H]2O)O[C@H]2C[C@@H](N)[C@H](O[C@H]3[C@H](O)[C@@H](O)[C@H](N)C[C@@H]3N)O[C@@H]2[C@@H]1O
1
CCOc1cccc(C(=O)c2ccc(O)c(O)c2O)c1
0.926
CCC(C)CCCCC(=O)NC(CCN)C(=O)NC(C(=O)NC(CCN)C(=O)NC1CCNC(=O)C(C(C)O)NC(=O)C(CCN)NC(=O)C(CCN)NC(=O)C(CC(C)C)NC(=O)C(Cc2ccccc2)NC(=O)C(CCN)NC1=O)C(C)O (configuration not stated) ({Octanoyl(6-Me)}-[Dab]T[Dab][Dab][Dab]FL[Dab][Dab]T; lactam 4-C; configuration not given here)
1
O/N=C\c1sccc1Oc1ccccc1
0.917
CC(C)(C)c1cc(-c2cc(C(F)(F)F)[nH]n2)c2c(c1)C(C)(C)CC2
1
COc1ccc(C(=O)c2ccc(O)cc2)c(O)c1O
1.02
Cc1ccc(N=Cc2cccs2)cc1Cl
1.05
COc1ccc(C(=O)c2ccccc2)c(O)c1O
0.977
Cn1cc(C(F)(F)F)nc1-c1ccc(OCC(O)CNCCOc2ccc(O)c(C(N)=O)c2)cc1 (configuration not stated)
1
CC(C)(C)c1ccc(-c2cc(N)c(C(N)=O)s2)cc1
0.983
CC(=O)O[C@@H]1CC[C@]2(C)C3CC[C@]4(C)C(=O)CCC4C3CC[C@H]2C1 (some centres not stated)
0.985
COP(=O)(OC)OC(Br)C(Cl)(Cl)Br (configuration not stated)
0.998
O=c1oc2c(O)c(O)cc3c(=O)oc4c(O)c(O)cc1c4c23
0.816
CNS(=O)(=O)c1cc(Br)ccc1S(=O)c1ccccc1C(=O)O (configuration not stated)
1.04
O=C(COC(=O)c1ccccc1C(=O)c1ccccc1)c1ccccc1
0.95
CC[C@@H](CO)NC(=O)[C@@H]1C=C2c3cccc4[nH]cc(c34)C[C@H]2N(C)C1
0.997
COc1cc(/C=C/C=O)cc(OC)c1OC
1.01
Cn1c(=O)c2[nH]c(-c3ccccc3)nc2n(C)c1=O
0.992
CN(C)CCc1c[nH]c2ccc(CS(=O)(=O)N3CCCC3)cc12
1.03
CC(C)(C)C1=NN(c2ccccc2)C(=O)C1
0.89
COc1cccc(Nc2nc3ccccc3s2)c1
0.485
NC[C@H]1O[C@H](O[C@H]2C(O[C@@H]3O[C@H](CO)[C@@H](O)[C@H]3O)[C@@H](O)[C@H](N)C[C@@H]2N)[C@H](N)[C@@H](O)[C@@H]1O (some centres not stated)
1
CCOC([O-])=Nc1c[n+](N2CCOCC2)no1
1.01
CN(C)/C=C1/C(=O)NN=C1CSc1ccccn1
1
